FYI, the data here is from patent US10494384B2.

- Tested on: BGC-823, liver cancer
- Test protocol: preliminary anti-tumor screening in vitro, SRB method
- Format: cell-based
- Measurement context: Homo sapiens, 1 μM, read-out: inhibition rates (%) BGC-823

{"Molecule": "COc1ccc(NC(=O)[C@H](Cc2ccccc2)NC(=O)N[C@@H](CC(C)C)B2OC3C[C@H]4C[C@H](C4(C)C)[C@@]3(C)O2)cc1 (stereo partly drawn)", "Tested target": "BGC-823, liver cancer", "inhibition at 1 µM / %": 7.84}
{"Molecule": "CC(C)C[C@H](NC(=O)N[C@@H](CC(C)C)C(=O)N[C@@H](CC(C)C)C(=O)Nc1cnccn1)B(O)O", "Tested target": "BGC-823, liver cancer", "inhibition at 1 µM / %": 4.58}
{"Molecule": "CC(C)C[C@H](NC(=O)[C@H](Cc1ccccc1)NC(=O)c1cnccn1)B(O)O [positive control, bortezomib, reference compound]", "Tested target": "BGC-823, liver cancer", "inhibition at 1 µM / %": 43.6}
{"Molecule": "COc1ccc(OC)c(CNC(=O)N[C@@H](Cc2ccccc2)C(=O)N[C@@H](CC(C)C)B(O)O)c1", "Tested target": "BGC-823, liver cancer", "inhibition at 1 µM / %": 46.6}
{"Molecule": "COc1ccc(OC)c(CNC(=O)N[C@@H](Cc2ccccc2)C(=O)N[C@@H](CC(C)C)B2OC3CC4CC(C4(C)C)[C@]3(C)O2)c1 (stereo partly drawn)", "Tested target": "BGC-823, liver cancer", "inhibition at 1 µM / %": 46.6}
{"Molecule": "COc1ccc(CNC(=O)N[C@@H](Cc2ccccc2)C(=O)N[C@@H](CC(C)C)B(O)O)cc1", "Tested target": "BGC-823, liver cancer", "inhibition at 1 µM / %": 32.6}

----------
- Tested target: 20S proteasome extracted from rat liver (PGPH) (Rattus norvegicus, UniProt P28073+Q9JHW0)
- Construct: 20S proteasome extracted from rat liver; from tissue; host or cells: rat liver
- Test protocol: inhibition of 20S proteasome, PGPH activity (fluorescent peptide)
- Format: biochemical
The label is Fulfilled for IC50 below 0.2 µM and Not fulfilled for IC50 equal to or exceeding 0.2 µM.

{"Entry smiles": "CC(C)C[C@H](NC(=O)[C@H](Cc1ccccc1)NC(=O)NCc1ccco1)B(O)O", "Assigned label": "Fulfilled"}
{"Entry smiles": "CC(C)C[C@H](NC(=O)[C@H](Cc1ccccc1)NC(=O)NCc1cccc([N+](=O)[O-])c1)B(O)O", "Assigned label": "Fulfilled"}
{"Entry smiles": "CC(C)C[C@H](NC(=O)[C@H](Cc1ccccc1)NC(=O)NCc1cc(Cl)ccc1Cl)B(O)O", "Assigned label": "Not fulfilled"}
{"Entry smiles": "CC(C)C[C@H](NC(=O)[C@H](Cc1ccccc1)NC(=O)NCCc1ccccc1)B(O)O", "Assigned label": "Not fulfilled"}
{"Entry smiles": "Cc1cccc(CNC(=O)N[C@@H](Cc2ccccc2)C(=O)N[C@@H](CC(C)C)B(O)O)c1C", "Assigned label": "Fulfilled"}
{"Entry smiles": "CC(C)C[C@H](NC(=O)[C@H](Cc1ccccc1)NC(=O)N1CCc2ccccc2C1)B(O)O", "Assigned label": "Fulfilled"}
{"Entry smiles": "CC(C)C[C@H](NC(=O)[C@H](Cc1ccccc1)NC(=O)NCc1cnccn1)B(O)O", "Assigned label": "Not fulfilled"}
{"Entry smiles": "CC(C)C[C@H](NC(=O)[C@H](Cc1ccccc1)NC(=O)N1CCc2ccccc2C1=O)B(O)O", "Assigned label": "Not fulfilled"}
{"Entry smiles": "CC(C)C[C@H](NC(=O)[C@H](Cc1ccccc1)NC(=O)NCc1ccc(F)c(F)c1)B(O)O", "Assigned label": "Fulfilled"}
